Target: UniProt:Q06418
Assay: biochemical
Details: HTRF, 60 min room temperature; read-out: Tyro3IC50
Could you please report measured IC50 for the items listed next?

Record excerpt, results attached:
INSERT INTO assay_data (compound, endpoint_value) VALUES
  ('NCC1(c2cccc(-c3nc(NC4CCCCC4)nc4[nH]ccc34)c2)Cc2ccccc2C1', '1000 to 3000 nM'),
  ('CNc1nc(-c2cccc(C3(CN)Cc4ccccc4C3)c2)c2cc[nH]c2n1', '1000 to 3000 nM');

I would be grateful if you could provide IC50 for each of the following entries.
1. CCn1cnc(-c2ccc3c(c2)CC(CN)(c2cccc(-c4ncnc5[nH]ccc45)c2)C3)c1 (stereo not drawn)
2. NCC1(c2cccc(-c3ncnc4[nH]ccc34)c2)Cc2ccc(CN3CC(O)C3)cc2C1 (stereo not drawn)
3. NCC1(c2cccc(-c3ncnc4[nH]ccc34)c2)Cc2ccc(N3CC(F)C3)cc2C1 (stereo not drawn)
4. CCNc1nc(-c2cccc(C3(CN)Cc4ccccc4C3)c2)c2cc[nH]c2n1
5. NCC1(c2cc(-c3ccnc4[nH]ncc34)ccn2)Cc2ccccc2C1
6. N#Cc1ccc2c(c1)CC(CN)(c1cccc(-c3ncnc4[nH]ccc34)c1)C2 (stereo not drawn)
7. NCC1(c2cccc(-c3nc(NC4CCCC4)nc4[nH]ccc34)c2)Cc2ccccc2C1

1: 500 to 1000 nM; 2: 1000 to 3000 nM; 3: 1000 to 3000 nM; 4: 1000 to 3000 nM; 5: 1000 to 3000 nM; 6: 1000 to 3000 nM; 7: 500 to 1000 nM

---

Target: Tyro3 (Homo sapiens (Human), UniProt Q06418)
Sequence (Q06418 41-890): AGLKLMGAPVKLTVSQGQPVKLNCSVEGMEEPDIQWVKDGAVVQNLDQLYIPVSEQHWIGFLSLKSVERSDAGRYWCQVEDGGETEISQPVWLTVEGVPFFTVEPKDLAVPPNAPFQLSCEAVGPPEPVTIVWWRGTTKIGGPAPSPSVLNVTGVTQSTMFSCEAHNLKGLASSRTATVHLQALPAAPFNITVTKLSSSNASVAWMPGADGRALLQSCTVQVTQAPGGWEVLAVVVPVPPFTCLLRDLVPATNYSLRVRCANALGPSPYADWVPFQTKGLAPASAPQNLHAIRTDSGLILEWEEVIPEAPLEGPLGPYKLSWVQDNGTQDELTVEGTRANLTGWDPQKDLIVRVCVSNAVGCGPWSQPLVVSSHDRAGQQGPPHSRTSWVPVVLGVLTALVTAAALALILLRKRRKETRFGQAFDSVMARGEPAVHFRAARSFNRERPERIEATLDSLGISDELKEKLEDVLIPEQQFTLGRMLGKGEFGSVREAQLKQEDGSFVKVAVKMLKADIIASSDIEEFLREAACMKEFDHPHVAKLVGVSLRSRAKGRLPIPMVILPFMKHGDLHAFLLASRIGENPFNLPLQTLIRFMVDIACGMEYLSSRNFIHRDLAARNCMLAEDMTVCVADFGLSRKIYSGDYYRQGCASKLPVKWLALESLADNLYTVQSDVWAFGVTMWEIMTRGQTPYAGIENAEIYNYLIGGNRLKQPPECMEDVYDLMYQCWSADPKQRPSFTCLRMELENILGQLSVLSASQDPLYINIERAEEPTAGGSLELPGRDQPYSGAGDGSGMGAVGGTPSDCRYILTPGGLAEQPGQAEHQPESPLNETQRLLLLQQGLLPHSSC
Assay: biochemical
Settings: read-out: Tyro3IC50
pIC50: −log10 of the molar value.
Could you please report measured pIC50 for the items listed next?

I would be grateful if you could provide pIC50 for each of the following entries.
1. NCC1(c2cccc(-c3ncnc4[nH]ccc34)c2)Cc2ccc(-c3cccnc3)cc2C1 (centres unmarked)
2. NCC1(c2cccc(-c3ncnc4[nH]ccc34)c2)Cc2ccc(CNC3CCC3)cc2C1 (centres unmarked)
3. NCC1(c2cccc(-c3ncnc4[nH]ccc34)c2)Cc2ccc(N3CCCC(O)C3)cc2C1 (centres unmarked)
4. CC(C)Nc1nc(-c2cccc(C3(CN)Cc4ccccc4C3)c2)c2cc[nH]c2n1
5. NCC1(c2cccc(-c3ncnc4[nH]ccc34)c2)Cc2ccc(-c3ccc(N4CCCC4)nc3)cc2C1 (centres unmarked)
6. O=C(NCCC1(c2cccc(-c3ncnc4[nH]ccc34)c2)Cc2ccccc2C1)C1CC1
7. NCC1(c2cccc(-c3ncnc4[nH]ccc34)c2)Cc2ccc(CN3CCC[C@@H]3C(N)=O)cc2C1 (some centres unmarked)

1: > 6.30; 2: < 5.52; 3: > 6.30; 4: < 5.52; 5: < 5.52; 6: < 5.52; 7: < 5.52

Given `CCCCNc1nc(-c2cccc(C3(CN)Cc4ccccc4C3)c2)c2cc[nH]c2n1` , report its pIC50 on Tyro3 (Homo sapiens (Human), UniProt Q06418).
> 6.30

---

Could you please report measured IC50 for the items listed next?
Target: c-Mer (Homo sapiens (Human))
Sequence (Q12866 21-999): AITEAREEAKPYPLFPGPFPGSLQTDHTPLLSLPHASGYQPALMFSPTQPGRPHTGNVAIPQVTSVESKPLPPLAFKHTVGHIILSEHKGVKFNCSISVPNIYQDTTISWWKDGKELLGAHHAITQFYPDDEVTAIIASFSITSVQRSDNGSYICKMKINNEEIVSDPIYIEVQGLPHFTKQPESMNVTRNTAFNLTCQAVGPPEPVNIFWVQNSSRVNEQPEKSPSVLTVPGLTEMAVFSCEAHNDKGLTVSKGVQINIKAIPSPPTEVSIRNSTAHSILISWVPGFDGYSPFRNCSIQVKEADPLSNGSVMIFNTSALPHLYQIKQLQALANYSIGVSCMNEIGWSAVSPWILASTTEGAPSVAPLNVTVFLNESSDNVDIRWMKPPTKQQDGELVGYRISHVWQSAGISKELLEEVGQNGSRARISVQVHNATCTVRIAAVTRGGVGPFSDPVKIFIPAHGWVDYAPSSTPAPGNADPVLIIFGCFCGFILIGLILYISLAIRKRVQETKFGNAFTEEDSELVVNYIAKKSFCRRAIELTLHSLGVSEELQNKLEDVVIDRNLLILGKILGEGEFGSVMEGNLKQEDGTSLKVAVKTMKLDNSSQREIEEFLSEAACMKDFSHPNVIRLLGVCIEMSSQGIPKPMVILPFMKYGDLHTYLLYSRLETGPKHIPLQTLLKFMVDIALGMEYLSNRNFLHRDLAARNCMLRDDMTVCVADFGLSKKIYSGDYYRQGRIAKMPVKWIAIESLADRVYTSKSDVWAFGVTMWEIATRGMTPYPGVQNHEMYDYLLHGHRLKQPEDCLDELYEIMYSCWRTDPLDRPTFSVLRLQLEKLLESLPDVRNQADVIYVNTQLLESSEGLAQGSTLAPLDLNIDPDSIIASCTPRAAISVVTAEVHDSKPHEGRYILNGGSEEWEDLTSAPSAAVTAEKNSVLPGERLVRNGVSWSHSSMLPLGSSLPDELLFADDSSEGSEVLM
Settings: read-out: c-Mer IC50; HTRF, 60 min room temperature

Record excerpt, results attached:
INSERT INTO results (compound, experimental_system, endpoint_value) VALUES
  ('NCC1(c2cccc(-c3ncnc4[nH]ccc34)c2)Cc2ccc(CNC3CC3)cc2C1 (stereo not shown)', 'c-Mer (Homo sapiens (Human))', '> 3000 nM'),
  ('CCCCNc1nc(-c2cccc(C3(CN)Cc4ccccc4C3)c2)c2cc[nH]c2n1', 'c-Mer (Homo sapiens (Human))', '< 500 nM'),
  ('NCC1(c2cccc(-c3ncnc4[nH]ccc34)c2)Cc2ccc(CN3CC(F)C3)cc2C1 (stereo not shown)', 'c-Mer (Homo sapiens (Human))', '> 3000 nM'),
  ('NCC1(c2cccc(-c3ncnc4[nH]ccc34)c2)Cc2ccc(-c3cccc(F)c3)cc2C1 (stereo not shown)', 'c-Mer (Homo sapiens (Human))', '> 3000 nM'),
  ('NCC1(c2cccc(-c3ncnc4[nH]ccc34)c2)Cc2ccc(CNC3CCC3)cc2C1 (stereo not shown)', 'c-Mer (Homo sapiens (Human))', '> 3000 nM');

I would be grateful if you could provide IC50 for each of the following entries.
1. O=C(NCC1(c2cccc(-c3ncnc4[nH]ccc34)c2)Cc2ccccc2C1)N1CCOCC1
2. NCC1(c2cccc(-c3ncnc4[nH]ccc34)c2)Cc2ccc(N3CC(F)C3)cc2C1 (stereo not shown)

["> 3000 nM", "< 500 nM"]

I would be grateful if you could provide IC50 for each of the following entries.
1. NCC1(c2cccc(-c3ncnc4[nH]ccc34)c2)Cc2ccc(CN3CC(O)C3)cc2C1 (stereo not shown)
2. NCC1(c2cccc(-c3ncnc4[nH]ccc34)c2)Cc2ccc(CN3CC[C@H](C(N)=O)C3)cc2C1 (stereo partly shown)
3. NCC1(c2cc(-c3nc(Nc4cccc(CN5CCOCC5)c4)nc4[nH]ccc34)ccn2)Cc2ccccc2C1
4. N#CC1CCN(c2ccc3c(c2)CC(CN)(c2cccc(-c4ncnc5[nH]ccc45)c2)C3)CC1 (stereo not shown)
5. NCC1(c2cccc(-c3nc(NC4CCCCC4)nc4[nH]ccc34)c2)Cc2ccccc2C1
6. CCNc1nc(-c2cccc(C3(CN)Cc4ccccc4C3)c2)c2cc[nH]c2n1
7. NCC1(c2cccc(-c3nc(NC4CCCC4)nc4[nH]ccc34)c2)Cc2ccccc2C1
8. COc1cnc2[nH]ccc2c1-c1ccnc(C2(CN)Cc3ccccc3C2)c1

1. > 3000 nM
2. > 3000 nM
3. < 500 nM
4. > 3000 nM
5. < 500 nM
6. < 500 nM
7. < 500 nM
8. < 500 nM

Given `Cn1nccc1C(=O)NCC1(c2cccc(-c3ncnc4[nH]ccc34)c2)Cc2ccccc2C1` , report its IC50 on c-Mer (Homo sapiens (Human)).
> 3000 nM
